- study.target: UniProt P0CW40
- procedure.summary: Substrate specificity of purified isomaltase
- Format: biochemical
- experimental.conditions: 100 mM substrate (pNPG 5 mM), pH 7, 30 °C
Rule: measured relative activity, velocity on isomaltose set to 100 below 70% gets condition met; anything equal to or greater than 70% gets condition not met.

| molecule | class.name |
| --- | --- |
| COC1OC(CO)C(O)C(O)C1O (stereo not drawn) [α-MG, α-Methylglucopyranoside] | condition not met |
| O=[N+]([O-])c1ccc(O[C@H]2O[C@H](CO)[C@@H](O)[C@H](O)[C@H]2O)cc1 [α-pNPG, 4-Nitrophenyl α-D-glucopyranoside] | condition met |
| OC[C@H]1O[C@@](CO)(O[C@H]2O[C@H](CO)[C@@H](O)[C@H](O)[C@H]2O)[C@@H](O)[C@@H]1O | condition not met |
| O=C(CO)[C@@H](O[C@H]1O[C@H](CO)[C@@H](O)[C@H](O)[C@H]1O)[C@H](O)[C@H](O)CO | condition met |
| OC[C@H]1O[C@H](OC[C@H]2O[C@H](O)[C@H](O)[C@@H](O)[C@@H]2O)[C@H](O)[C@@H](O)[C@@H]1O | condition not met |
| OC[C@H]1O[C@H](O[C@@H]2[C@@H](O)[C@@H](O)O[C@H](CO)[C@H]2O)[C@H](O)[C@@H](O)[C@@H]1O | condition met |

---

- study.target: Ima2p (Saccharomyces cerevisiae)
- procedure.summary: Kinetic parameters for selected substrates
- Type: biochemical
- experimental.conditions: affinity constant for the substrate, mean ± SEM
Form field: Km (one value per entry).
reported.endpoint: Km

| compound | study.target | result |
| --- | --- | --- |
| OC[C@H]1O[C@H](OC[C@H]2OC(O)(CO)[C@@H](O)[C@@H]2O)[C@H](O)[C@@H](O)[C@@H]1O (stereo partly shown) | Ima2p (Saccharomyces cerevisiae) | 11 mM |
| COC1OC(CO)C(O)C(O)C1O (stereo not drawn) [α-MG, α-Methylglucopyranoside] | Ima2p (Saccharomyces cerevisiae) | 28 mM |
| OC[C@H]1O[C@H](OC[C@H]2O[C@H](OC[C@H]3OC(O)[C@H](O)[C@@H](O)[C@@H]3O)[C@H](O)[C@@H](O)[C@@H]2O)[C@H](O)[C@@H](O)[C@@H]1O (stereo partly shown) | Ima2p (Saccharomyces cerevisiae) | 72 mM |
| OC[C@H]1O[C@H](OC[C@H]2O[C@H](O)[C@H](O)[C@@H](O)[C@@H]2O)[C@H](O)[C@@H](O)[C@@H]1O | Ima2p (Saccharomyces cerevisiae) | 17 mM |

---

# maps each entry to its Specific activities
- study.target: Ima3p (Saccharomyces cerevisiae, UniProt P0CW40)
- Sequence (P0CW40 whole entry): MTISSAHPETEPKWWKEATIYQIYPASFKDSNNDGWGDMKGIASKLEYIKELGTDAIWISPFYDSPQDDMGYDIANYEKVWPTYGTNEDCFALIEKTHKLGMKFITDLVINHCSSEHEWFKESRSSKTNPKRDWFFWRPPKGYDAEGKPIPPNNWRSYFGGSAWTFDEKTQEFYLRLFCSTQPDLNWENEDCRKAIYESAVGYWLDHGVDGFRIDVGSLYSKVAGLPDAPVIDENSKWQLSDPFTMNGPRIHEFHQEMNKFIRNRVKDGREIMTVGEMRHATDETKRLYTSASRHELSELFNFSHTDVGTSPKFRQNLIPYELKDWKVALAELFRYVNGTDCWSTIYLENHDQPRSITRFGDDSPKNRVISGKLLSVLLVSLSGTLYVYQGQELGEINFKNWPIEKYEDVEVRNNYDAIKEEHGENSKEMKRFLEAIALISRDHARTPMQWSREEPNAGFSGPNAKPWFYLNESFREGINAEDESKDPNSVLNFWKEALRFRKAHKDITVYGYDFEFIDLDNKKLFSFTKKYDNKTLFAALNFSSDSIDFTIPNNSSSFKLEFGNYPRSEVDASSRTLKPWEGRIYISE
- procedure.summary: Substrate specificity of purified isomaltase
- Format: biochemical
- experimental.conditions: 100 mM substrate (pNPG 5 mM), citrate–potassium phosphate buffer, pH 7, 30 °C

| compound | measure.unit | Specific activities |
| --- | --- | --- |
| OC[C@H]1O[C@H](O[C@@H]2[C@@H](O)[C@@H](O)O[C@H](CO)[C@H]2O)[C@H](O)[C@@H](O)[C@@H]1O | µmol/min/mg | 2.5 |
| OC[C@H]1O[C@H](OC[C@H]2OC(O)(CO)[C@@H](O)[C@@H]2O)[C@H](O)[C@@H](O)[C@@H]1O (stereo partly drawn) | µmol/min/mg | 5 |
| OC[C@H]1O[C@H](OC[C@H]2O[C@H](O)[C@H](O)[C@@H](O)[C@@H]2O)[C@H](O)[C@@H](O)[C@@H]1O | µmol/min/mg | 7.2 |

---

- study.target: Ima2p (Saccharomyces cerevisiae, UniProt Q08295)
- Sequence (Q08295 whole entry): as the sequence (P0CW40 whole entry) above, with T54A, L240P, R279Q counted along it
- procedure.summary: Substrate specificity of purified isomaltase
- Format: biochemical
- experimental.conditions: 100 mM substrate (pNPG 5 mM), citrate–potassium phosphate buffer, pH 7, 30 °C
Specific activities listing for selected compounds.
reported.endpoint: Specific activities (µmol/min/mg)

| compound | quantitative.result |
| --- | --- |
| OC[C@H]1O[C@H](OC[C@H]2OC(O)(CO)[C@@H](O)[C@@H]2O)[C@H](O)[C@@H](O)[C@@H]1O (stereo partly drawn) | 74 |
| OC[C@H]1O[C@H](OC[C@H]2O[C@H](OC[C@H]3OC(O)[C@H](O)[C@@H](O)[C@@H]3O)[C@H](O)[C@@H](O)[C@@H]2O)[C@H](O)[C@@H](O)[C@@H]1O (stereo partly drawn) | 7.6 |
| OC[C@H]1O[C@H](O[C@@H]2[C@@H](CO)OC(O)(CO)[C@H]2O)[C@H](O)[C@@H](O)[C@@H]1O (stereo partly drawn) | 0.53 |
| O=[N+]([O-])c1ccc(O[C@@H]2O[C@H](CO)[C@@H](O)[C@H](O)[C@H]2O)cc1 [β-pNPG, 4-Nitrophenyl β-D-glucopyranoside] | 0 |
| OC[C@H]1O[C@H](O[C@@H]2[C@@H](O)[C@@H](O)O[C@H](CO)[C@H]2O)[C@H](O)[C@@H](O)[C@@H]1O | 6.8 |
| OC[C@H]1O[C@@](CO)(O[C@H]2O[C@H](CO)[C@@H](O)[C@H](O)[C@H]2O)[C@@H](O)[C@@H]1O | 19.7 |

---

- study.target: UniProtKB P40884
- Sequence (P40884 whole entry): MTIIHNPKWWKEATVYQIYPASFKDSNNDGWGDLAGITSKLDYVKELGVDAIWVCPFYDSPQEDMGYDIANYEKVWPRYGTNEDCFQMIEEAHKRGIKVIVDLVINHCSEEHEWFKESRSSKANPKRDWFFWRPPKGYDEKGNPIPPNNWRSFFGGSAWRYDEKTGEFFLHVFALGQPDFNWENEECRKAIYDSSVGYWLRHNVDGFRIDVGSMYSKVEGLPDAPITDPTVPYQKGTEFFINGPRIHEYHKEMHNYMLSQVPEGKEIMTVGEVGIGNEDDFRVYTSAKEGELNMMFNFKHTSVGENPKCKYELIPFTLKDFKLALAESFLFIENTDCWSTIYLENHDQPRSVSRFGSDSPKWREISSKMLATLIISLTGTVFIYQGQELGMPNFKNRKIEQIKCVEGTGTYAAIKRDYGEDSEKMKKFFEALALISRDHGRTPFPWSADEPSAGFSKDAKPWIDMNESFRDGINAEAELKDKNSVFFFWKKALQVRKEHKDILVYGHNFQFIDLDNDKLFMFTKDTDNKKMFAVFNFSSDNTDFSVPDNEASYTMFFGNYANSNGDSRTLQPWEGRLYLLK
- procedure.summary: Substrate specificity of purified isomaltase
- Type: biochemical
- experimental.conditions: 100 mM substrate (pNPG 5 mM), pH 7, 30 °C
We label by threshold. Values of relative activity, velocity on isomaltose set to 100 strictly beneath 6% are 1. Values of 6% and up are 0.

| compound | class.name |
| --- | --- |
| OC[C@H]1O[C@H](OC[C@H]2O[C@H](O)[C@H](O)[C@@H](O)[C@@H]2O)[C@H](O)[C@@H](O)[C@@H]1O [Isomaltose, O-α-D-Glucosyl-(1→6)-α-D-glucose] | 0 |
| O=C(CO)[C@@H](O[C@H]1O[C@H](CO)[C@@H](O)[C@H](O)[C@H]1O)[C@H](O)[C@H](O)CO [Turanose, O-α-D-Glucosyl-(1→3)-D-fructose] | 1 |
| O=[N+]([O-])c1ccc(O[C@H]2O[C@H](CO)[C@@H](O)[C@H](O)[C@H]2O)cc1 [α-pNPG, 4-Nitrophenyl α-D-glucopyranoside] | 0 |
| OC[C@H]1O[C@H](O[C@H]2[C@H](O)[C@@H](O)[C@@H](O[C@H]3[C@H](O)[C@@H](O)C(O)O[C@@H]3CO)O[C@@H]2CO)[C@H](O)[C@@H](O)[C@@H]1O (stereo partly drawn) [Maltotriose] | 1 |
| OC[C@H]1O[C@H](O[C@@H]2COC(O)(CO)[C@@H](O)[C@@H]2O)[C@H](O)[C@@H](O)[C@@H]1O (stereo partly drawn) [Leucrose, O-α-D-Glucosyl-(1→5)-D-fructose] | 1 |
| OC[C@H]1O[C@@](CO)(O[C@H]2O[C@H](CO)[C@@H](O)[C@H](O)[C@H]2O)[C@@H](O)[C@@H]1O [Sucrose, O-α-D-Glucosyl-(1→2)-β-D-fructose] | 1 |
| OC[C@H]1O[C@H](OC[C@H]2OC(O)(CO)[C@@H](O)[C@@H]2O)[C@H](O)[C@@H](O)[C@@H]1O (stereo partly drawn) [Palatinose, O-α-D-Glucosyl-(1→6)-D-fructose] | 0 |
